Origin of measurements: ChEMBL document CHEMBL1135389

- experimental_target: UniProt:P29274
- test_name: Displacement of [3H]-SCH- 58261 binding at human Adenosine A2A receptor expressed in HEK293 cells; ranges from 48.9-52.4
- Format: cell-based
assay_readout: pKi
Numbers only, as −log10 of the molar value.

*Q* Fill in reported pKi for this entry: `Nc1nc2c(cnn2CCc2ccc(S(=O)(=O)NCC(=O)O)cc2)c2nc(-c3ccco3)nn12`
*A* 7.30

* * *

- experimental_target: Adenosine receptor A2a (Homo sapiens, UniProt P29274)
- Sequence (P29274 whole entry): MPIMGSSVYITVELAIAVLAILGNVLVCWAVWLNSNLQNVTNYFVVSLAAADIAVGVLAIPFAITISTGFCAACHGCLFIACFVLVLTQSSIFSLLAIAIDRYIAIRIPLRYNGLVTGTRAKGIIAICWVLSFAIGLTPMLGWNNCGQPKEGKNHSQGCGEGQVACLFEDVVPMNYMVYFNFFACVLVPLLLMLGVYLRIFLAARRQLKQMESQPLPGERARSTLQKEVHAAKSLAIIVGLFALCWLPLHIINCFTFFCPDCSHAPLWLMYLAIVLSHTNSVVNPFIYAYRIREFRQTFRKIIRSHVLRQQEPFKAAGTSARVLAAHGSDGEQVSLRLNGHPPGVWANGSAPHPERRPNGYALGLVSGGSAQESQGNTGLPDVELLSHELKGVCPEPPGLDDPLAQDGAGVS
- test_name: Displacement of [3H]-SCH- 58261 from human Adenosine A2A receptor expressed in HEK293 cells; ranges from 4.95-6.08
- Assay type: cell-based
assay_readout: Ki
Output should be the measured figure followed by the unit it is expressed in.

*Q* Fill in reported Ki for this entry: `CCOC(=O)[C@@H]1Oc2ccc(CCCn3ncc4c3nc(N)n3nc(-c5ccco5)nc43)cc2O1`
*A* 5.48 nM

* * *

- experimental_target: Adenosine receptor A3 (Homo sapiens, UniProt P0DMS8)
- Sequence (P0DMS8 whole entry): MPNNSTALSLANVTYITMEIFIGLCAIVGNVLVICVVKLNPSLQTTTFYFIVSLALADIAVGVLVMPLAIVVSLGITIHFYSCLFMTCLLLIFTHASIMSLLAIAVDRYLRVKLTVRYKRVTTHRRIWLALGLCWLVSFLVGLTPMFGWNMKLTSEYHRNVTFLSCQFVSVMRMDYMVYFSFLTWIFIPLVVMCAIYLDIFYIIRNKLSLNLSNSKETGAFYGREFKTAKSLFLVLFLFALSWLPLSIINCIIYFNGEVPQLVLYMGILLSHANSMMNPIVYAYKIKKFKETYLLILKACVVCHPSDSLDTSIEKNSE
- test_name: Displacement of specific [3H]MRE3008-F20 binding at human adenosine A3 receptor expressed in CHO cells.
- Type: cell-based
- recorded_conditions: cho
pKi: −log10 of the molar value.
assay_readout: pKi

*Q* Fill in reported pKi for this entry: `Nc1nc2c(cnn2CCCc2ccc3c(c2)OC(C(=O)O)(C(=O)O)O3)c2nc(-c3ccco3)nn12`
*A* < 5.00

* * *

- experimental_target: Adenosine receptor A1 (Homo sapiens)
- test_name: biochemical
- Description: Displacement of specific [3H]DPCPX binding at human Adenosine A1 receptor expressed in CHO cells.
assay_readout: Ki (nM)
Answers are plain numbers, in nM.

*Q* Fill in reported Ki for this entry: `N/C(=N\O)c1ccc(CCn2ncc3c2nc(N)n2nc(-c4ccco4)nc32)cc1`
*A* 179

*Q* Fill in reported Ki for this entry: `Nc1nc2c(cnn2CCCc2ccccc2)c2nc(-c3ccco3)nn12`
*A* 350

*Q* Fill in reported Ki for this entry: `Nc1nc2c(cnn2CCCc2ccc([N+](=O)[O-])cc2)c2nc(-c3ccco3)nn12`
*A* 1030

*Q* Fill in reported Ki for this entry: `Nc1nc2c(cnn2CCCc2ccc(N(CCO)CCO)cc2)c2nc(-c3ccco3)nn12`
*A* 558

*Q* Fill in reported Ki for this entry: `Nc1nc2c(cnn2CCc2ccc(N(CCO)CCO)cc2)c2nc(-c3ccco3)nn12`
*A* 123

*Q* Fill in reported Ki for this entry: `CCOC(=O)COc1ccc(CCn2ncc3c2nc(N)n2nc(-c4ccco4)nc32)cc1`
*A* 4200

Please give Ki, item by item, for the list that follows.
1. Nc1ccc(CCn2ncc3c2nc(N)n2nc(-c4ccco4)nc32)cc1
2. NCc1ccc(CCCn2ncc3c2nc(N)n2nc(-c4ccco4)nc32)cc1
3. Nc1nc2c(cnn2CCc2ccc(S(=O)(=O)O)cc2)c2nc(-c3ccco3)nn12
4. Nc1ccc(CCCn2ncc3c2nc(N)n2nc(-c4ccco4)nc32)cc1

*A*
576
60
190
2160

Please give Ki, item by item, for the list that follows.
1. CC(=O)Nc1ccc(CCn2ncc3c2nc(N)n2nc(-c4ccco4)nc32)cc1
2. Nc1nc2c(cnn2CCc2ccc(S(N)(=O)=O)cc2)c2nc(-c3ccco3)nn12
3. N=C(N)c1ccc(CCCn2ncc3c2nc(N)n2nc(-c4ccco4)nc32)cc1
4. CCOC(=O)c1ccc(CCCn2ncc3c2nc(N)n2nc(-c4ccco4)nc32)cc1
5. N/C(=N/O)c1ccc(CCCn2ncc3c2nc(N)n2nc(-c4ccco4)nc32)cc1
6. Nc1nc2c(cnn2CCc2ccc(S(=O)(=O)N(CCCl)CCCl)cc2)c2nc(-c3ccco3)nn12
7. N#Cc1ccc(CCCn2ncc3c2nc(N)n2nc(-c4ccco4)nc32)cc1
8. Nc1nc2c(cnn2CCCc2ccc(C(=O)O)cc2)c2nc(-c3ccco3)nn12

*A*
[419, 2630, 75, 4490, 60, 5300, 6500, 4960]

* * *

- experimental_target: Adenosine receptor A2a (Homo sapiens, UniProt P29274)
- test_name: Displacement of [3H]-SCH- 58261 binding at human Adenosine A2A receptor expressed in HEK293 cells; ranges from 129-152
- Assay type: cell-based
assay_readout: pKi
Numbers only, as −log10 of the molar value.

*Q* Give reported pKi for `Nc1nc2c(cnn2CCCc2ccc(S(=O)(=O)O)cc2)c2nc(-c3ccco3)nn12` (Adenosine receptor A2a (Homo sapiens, UniProt P29274))
*A* 6.85

* * *

- experimental_target: Adenosine receptor A1 (Homo sapiens, UniProt P30542)
- Sequence (P30542 whole entry): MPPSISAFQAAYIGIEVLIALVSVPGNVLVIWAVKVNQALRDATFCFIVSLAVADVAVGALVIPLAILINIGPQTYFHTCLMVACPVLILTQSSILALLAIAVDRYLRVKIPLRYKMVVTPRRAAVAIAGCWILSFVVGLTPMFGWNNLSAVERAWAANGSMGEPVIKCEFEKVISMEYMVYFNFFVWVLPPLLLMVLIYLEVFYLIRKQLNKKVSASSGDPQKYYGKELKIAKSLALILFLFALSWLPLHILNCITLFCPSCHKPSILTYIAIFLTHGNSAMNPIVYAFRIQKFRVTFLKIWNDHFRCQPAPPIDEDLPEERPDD
- test_name: Displacement of [3H]DPCPX binding at human Adenosine A1 receptor expressed in CHO cells; ranges from 5697-7171
- Format: cell-based
assay_readout: pKi
Give bare numbers, as −log10 of the molar value.

*Q* Fill in reported pKi for this entry: `Nc1nc2c(cnn2CCCc2cc3c(cc2S(=O)(=O)O)OCO3)c2nc(-c3ccco3)nn12`
*A* 5.19

* * *

- experimental_target: Adenosine receptor A2b (Homo sapiens)
- Sequence (P29275 whole entry): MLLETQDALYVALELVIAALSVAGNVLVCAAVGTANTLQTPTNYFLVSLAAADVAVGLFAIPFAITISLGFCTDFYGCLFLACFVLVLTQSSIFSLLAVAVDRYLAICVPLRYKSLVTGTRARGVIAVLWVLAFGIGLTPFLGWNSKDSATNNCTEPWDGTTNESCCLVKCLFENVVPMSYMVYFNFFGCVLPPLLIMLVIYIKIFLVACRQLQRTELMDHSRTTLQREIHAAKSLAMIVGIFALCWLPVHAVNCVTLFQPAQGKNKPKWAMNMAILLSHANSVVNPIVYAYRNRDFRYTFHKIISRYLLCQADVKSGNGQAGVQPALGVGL
- recorded_conditions: hek293
- Description: Displacement of specific [3H]DPCPX binding at human adenosine A2B receptor expressed in HEK293 cells.
assay_readout: Ki

*Q* Fill in reported Ki for this entry: `Nc1nc2c(cnn2CCCc2ccc3c(c2)OC(C(=O)O)(C(=O)O)O3)c2nc(-c3ccco3)nn12`
*A* > 10 µM

* * *

- experimental_target: Adenosine receptor A1 (Homo sapiens)
- test_name: Displacement of [3H]DPCPX from human Adenosine A1 receptor expressed in CHO cells; ranges from 324-420
- Format: cell-based
assay_readout: pKi
Answers are plain numbers, as −log10 of the molar value.

*Q* Fill in reported pKi for this entry: `CN1CCN(S(=O)(=O)c2ccc(CCn3ncc4c3nc(N)n3nc(-c5ccco5)nc43)cc2)CC1`
*A* 6.43

* * *

- experimental_target: UniProt:P29274
- test_name: Displacement of [3H]-SCH- 58261 binding at human Adenosine A2A receptor expressed in HEK293 cells; ranges from 66-85
- Assay type: cell-based
assay_readout: Ki (nM)
Give bare numbers, in nM.

*Q* Fill in reported Ki for this entry: `Nc1nc2c(cnn2CCCc2cc3c(cc2S(=O)(=O)O)OCO3)c2nc(-c3ccco3)nn12`
*A* 75

* * *

- experimental_target: Adenosine receptor A3 (Homo sapiens, UniProt P0DMS8)
- test_name: Displacement of specific [3H]MRE3008-F20 binding at human adenosine A3 receptor expressed in CHO cells.
- Format: cell-based
pKi: −log10 of the molar value.
assay_readout: pKi

Consider the worked cases shown below.
*Q* Fill in reported pKi for this entry: `Nc1nc2c(cnn2CCCc2ccc3c(c2)OC(C(=O)O)(C(=O)O)O3)c2nc(-c3ccco3)nn12`
*A* < 5.00

*Q* Fill in reported pKi for this entry: `N/C(=N/O)c1ccc(CCCn2ncc3c2nc(N)n2nc(-c4ccco4)nc32)cc1`
*A* < 5.00

*Q* Fill in reported pKi for this entry: `Nc1nc2c(cnn2CCCc2ccc(C(=O)O)cc2)c2nc(-c3ccco3)nn12`
*A* < 5.00

*Q* Fill in reported pKi for this entry: `N/C(=N\O)c1ccc(CCn2ncc3c2nc(N)n2nc(-c4ccco4)nc32)cc1`
*A* < 5.00

*Q* Fill in reported pKi for this entry: `N=C(N)c1ccc(CCCn2ncc3c2nc(N)n2nc(-c4ccco4)nc32)cc1`
*A* < 5.00

Please give pKi, item by item, for the list that follows.
1. CC(=O)Nc1ccc(CCn2ncc3c2nc(N)n2nc(-c4ccco4)nc32)cc1
2. Nc1nc2c(cnn2CCCc2cc3c(cc2S(=O)(=O)O)OCO3)c2nc(-c3ccco3)nn12

*A*
["< 5.00", "< 5.00"]

Please give pKi, item by item, for the list that follows.
1. NCc1ccc(CCCn2ncc3c2nc(N)n2nc(-c4ccco4)nc32)cc1
2. Nc1nc2c(cnn2CCc2ccc(S(=O)(=O)N(CCCl)CCCl)cc2)c2nc(-c3ccco3)nn12
3. Nc1nc2c(cnn2CCc2ccc(N(CCO)CCO)cc2)c2nc(-c3ccco3)nn12
4. CN1CCN(S(=O)(=O)c2ccc(CCn3ncc4c3nc(N)n3nc(-c5ccco5)nc43)cc2)CC1
5. CCOC(=O)c1ccc(CCCn2ncc3c2nc(N)n2nc(-c4ccco4)nc32)cc1

*A*
1. < 5.00
2. < 5.00
3. < 5.00
4. < 5.00
5. < 5.00

Please give pKi, item by item, for the list that follows.
1. Nc1nc2c(cnn2CCCc2ccc3c(c2)O[C@H](C(=O)O)O3)c2nc(-c3ccco3)nn12
2. Nc1nc2c(cnn2CCc2ccc(S(=O)(=O)N(CCO)CCO)cc2)c2nc(-c3ccco3)nn12
3. Nc1ccc(CCn2ncc3c2nc(N)n2nc(-c4ccco4)nc32)cc1
4. N#Cc1ccc(CCCn2ncc3c2nc(N)n2nc(-c4ccco4)nc32)cc1
5. Nc1nc2c(cnn2CCCc2ccc(S(=O)(=O)O)cc2)c2nc(-c3ccco3)nn12

*A*
["< 5.00", "< 5.00", "< 5.00", "< 5.00", "< 5.00"]
